TARGET OR SYSTEM: Aspartate--tRNA(Asp/Asn) ligase (Mycobacterium tuberculosis (strain ATCC 25618 / H37Rv)) (UniProt P9WFW3)
Sequence (P9WFW3 whole entry): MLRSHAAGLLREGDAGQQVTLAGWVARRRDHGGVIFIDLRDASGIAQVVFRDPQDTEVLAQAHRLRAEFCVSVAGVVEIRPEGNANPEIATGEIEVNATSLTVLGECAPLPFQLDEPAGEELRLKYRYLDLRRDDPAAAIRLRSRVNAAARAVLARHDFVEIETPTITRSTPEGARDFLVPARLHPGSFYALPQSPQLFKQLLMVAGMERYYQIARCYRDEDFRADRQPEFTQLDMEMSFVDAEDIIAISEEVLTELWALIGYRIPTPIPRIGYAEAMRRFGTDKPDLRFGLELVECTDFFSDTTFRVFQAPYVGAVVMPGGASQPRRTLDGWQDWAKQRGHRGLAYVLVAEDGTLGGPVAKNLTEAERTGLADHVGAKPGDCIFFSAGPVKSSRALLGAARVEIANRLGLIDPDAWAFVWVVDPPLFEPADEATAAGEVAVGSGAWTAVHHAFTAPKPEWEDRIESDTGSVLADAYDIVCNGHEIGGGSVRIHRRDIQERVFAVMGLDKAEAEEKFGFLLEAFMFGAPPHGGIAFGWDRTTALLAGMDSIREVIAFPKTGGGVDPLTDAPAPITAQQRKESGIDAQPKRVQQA
METHOD SUMMARY: Assay for Asp RNA synthetase-1 from Mycobacterium tuberculosis
Assay type: functional
Design: scale not given: in the data most compounds retested in dose-response had high values
PARTICULARS: 30 µM
VALUE TYPE: Percent Effect
Write down the value, and be sure its unit follows.

Use the examples below as a reference point.
COMPOUND: Cc1ccccc1CSc1nc(N)cc(N2CCOC(C(N)=O)C2)n1 (centres undefined)
ENDPOINT VALUE: 3.12%
//
COMPOUND: Cc1nc(C)n(CC2CCCN(CCc3ccncc3)C2)n1 (centres undefined)
ENDPOINT VALUE: 0.891%
//
COMPOUND: Cn1nc2c(cc1=O)CN(Cc1coc(-c3cccs3)n1)CC2
ENDPOINT VALUE: 39.2%

Pending compound:
What measured Percent Effect goes with Cc1nccc(C2CN(Cc3cc[nH]n3)CCO2)n1 (centres undefined) ?
-1.53%
